TARGET_ENTITY: T1, Human serum albumin (human, UniProt P02768 25-609)
T1 construct: serum albumin, human; also called HSA; source: bought: Sigma
ASSAY_NOTES: SPR; BIAcore 3000; peptide serially diluted and injected; KD by BIAcore kinetic evaluation Ver. 4.1; method by refs 48, 49
CONDITION_SUMMARY: both partners purified
MEASURED_PARAMETER: pKd
As a rule, pKd stands for the negative log10 of the concentration, concentration in M.

Query block: For MWQRPSSWIEGRLLTHTISRIAVSYQTKVNLL (P16, TNF α segment of amino acid residues 75-94, human; also called recombinant peptide RMP16) [RMP16, recombinant TNF α-derived polypeptide] , write its pKd.
Result block: 6.06
